target: SARS-CoV-2 Omicron BA.5 RBD (Omicron_BA.5_RBD-AviHis) (SARS-CoV-2 (Omicron BA.5 variant)); assay: BLI, biotinylated RBD, mass transport model fit
Measured parameter: Kd (nM)
Give the number; nM is assumed, so skip it.

[in] Which value of Kd has been reported for Ma16B06 (VHH, Monomeric VHH; also called VHH Ma16B06) VHH: QVQLVESGGGLVRTGGSLRLSCAASGSILQIWAMKWYRQAPGLQREWIATIPNSGEPFYASSVEGRFTGSRENEETVYLYLNNLEPEDTAVYYCEVNEGVPVREYWGQGTQVTVSS in the records?
[out] 20

[in] Ok, now Ma28D01 (VHH, Monomeric VHH) VHH: QVQLVESGGGLVQPGGSLRLSCVVSELGLDYYQIGWFRQAPGKEREGVSCFRSSDEIRYYADSVKGRFTTFRDNAGTTVYLQMNSLKPEDTGVYYCAVAPQTYYHGTWYGECAAAGMDSWGKGTQVTVSS
[out] 0.03

[in] Ok, now Ma28H11 (VHH, Monomeric VHH; also called M28H11) VHH: QVQLVESGGGLVQPGGSLRLSCATSGLTLDHYAIGWFLQAPGKEREGVACVSDDERSLYAPSVMGRFSISRDNAKKTFYLEMNSLKPEDTGVYYCASGPVVPGTLCRIPTVLGYDDWGQGTQVTVSS
[out] 0.3

[in] Ok, now Ma28F04 (VHH, Monomeric VHH) VHH: QVQLVESGGGLVQPGGSLRLSCVVSDLGLDYYQIGWFRQAPGKEREGVSCFRSSDEIRYYADPVKGRFTTFRDNAGTTVYLQMNSLKPEDTGVYYCAVAPQTYYHGTWYGECAAAGMDSWGKGTLVTVSS
[out] 0.03
